Origin of measurements: patent US4082881A

Assay: solubility of the steroid in water and in hydrocarbon and other vehicles
Format: physicochemical
Settings: water
RESULT_TYPE: solubility

Lab book: solubility of CC1(C)O[C@@H]2C[C@H]3[C@@H]4CCC5=CC(=O)CC[C@]5(C)[C@@]4(F)[C@@H](O)C[C@]3(C)[C@]2(C(=O)CCl)O1 noted as < 5 µg/mL

====

Experiment: solubility of econazole nitrate in water and in the isosorbide preparations
Assay type: physicochemical
Details: water
RESULT_TYPE: solubility

Lab book: solubility of Clc1ccc(COC(Cn2ccnc2)c2ccc(Cl)cc2Cl)cc1 (stereo not shown) [econazole nitrate] noted as ~1000 µg/mL
